- Target Or Test System: T1, MfArtemin-MMH (cynomolgous monkey (Macaca fascicularis))
- T1 construct: also called mfARTN.mmh; mfARTN (A108-G22).mmh
- T1 chain: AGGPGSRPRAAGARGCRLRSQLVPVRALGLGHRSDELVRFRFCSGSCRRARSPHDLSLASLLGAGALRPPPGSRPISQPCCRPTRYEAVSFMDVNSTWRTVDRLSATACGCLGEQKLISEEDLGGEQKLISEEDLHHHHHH
- Test Protocol: BLI (Octet HTX), mAb captured on AHC tips, artemin at 30 nM, 25 C
Property Measured: Artemin Binding Response (nm)
Hi! Could you send only the number? It should be in nm, unit omitted.

IN: Consider the binder H4H33331P (antibody, human IgG4 S228P, kappa, V domains shown, Fully human antibody (human variable and constant domains) from a VELOCIMMUNE mouse; also called Artemin mAb; anti-ARTN antibody) VH: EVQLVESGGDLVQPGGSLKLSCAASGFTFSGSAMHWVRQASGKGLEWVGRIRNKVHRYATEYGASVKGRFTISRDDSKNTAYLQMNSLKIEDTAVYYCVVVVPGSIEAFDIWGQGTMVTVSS VL: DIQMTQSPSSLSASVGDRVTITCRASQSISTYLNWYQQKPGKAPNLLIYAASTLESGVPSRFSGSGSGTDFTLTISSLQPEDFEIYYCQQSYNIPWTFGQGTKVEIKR . State its measured Artemin Binding Response (nm).
OUT: 0.09
